Each record here notes measured Mean % WT Binding.
Target: human CD33 F279A (human, UniProt P20138 18-364)
Sequence (P20138 18-364 F279A limits assumed): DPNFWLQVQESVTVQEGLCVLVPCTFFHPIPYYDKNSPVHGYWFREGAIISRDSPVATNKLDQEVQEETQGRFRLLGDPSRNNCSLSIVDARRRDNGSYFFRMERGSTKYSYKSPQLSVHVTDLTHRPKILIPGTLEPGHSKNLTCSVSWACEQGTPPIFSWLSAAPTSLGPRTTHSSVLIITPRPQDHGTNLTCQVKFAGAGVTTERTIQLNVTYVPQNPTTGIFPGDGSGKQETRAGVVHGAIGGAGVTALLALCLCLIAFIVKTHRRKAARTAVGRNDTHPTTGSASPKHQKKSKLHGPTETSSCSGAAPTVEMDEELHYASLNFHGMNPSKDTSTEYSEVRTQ
Experiment: alanine scan, flow cytometry, HEK293-T;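 further: antibody binding to each alanine-substituted CD33 mutant expressed transiently in HEK293-T, read as fluorescence minus background, mean of duplicates, relative to wild-type CD33 set as 100%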
Reply numerically in % WT binding, unit not repeated.

Use these answered entries as a reference point.
Refmab #4 (antibody, V domains shown, The alanine scan used IgG or Fab) VH: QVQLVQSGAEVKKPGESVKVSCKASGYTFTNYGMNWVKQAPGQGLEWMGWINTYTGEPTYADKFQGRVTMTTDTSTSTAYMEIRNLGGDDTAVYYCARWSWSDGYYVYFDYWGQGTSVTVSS VL: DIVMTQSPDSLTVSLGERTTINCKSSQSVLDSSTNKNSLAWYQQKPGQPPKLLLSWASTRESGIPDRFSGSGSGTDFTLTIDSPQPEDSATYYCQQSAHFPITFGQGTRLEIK; 103
Refmab #3 (antibody, V domains shown, The alanine scan used IgG or Fab) VH: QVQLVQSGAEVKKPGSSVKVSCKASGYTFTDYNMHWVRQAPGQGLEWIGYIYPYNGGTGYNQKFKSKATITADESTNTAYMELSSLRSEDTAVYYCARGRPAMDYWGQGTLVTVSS VL: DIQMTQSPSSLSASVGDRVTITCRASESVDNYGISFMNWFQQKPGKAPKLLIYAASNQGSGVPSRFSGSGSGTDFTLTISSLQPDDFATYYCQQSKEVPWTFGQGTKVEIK; 138

### Prompt State, in one line, measured Mean % WT Binding of Refmab #1 (antibody, V domains shown, The alanine scan used IgG or Fab; also called hP67.6) VH: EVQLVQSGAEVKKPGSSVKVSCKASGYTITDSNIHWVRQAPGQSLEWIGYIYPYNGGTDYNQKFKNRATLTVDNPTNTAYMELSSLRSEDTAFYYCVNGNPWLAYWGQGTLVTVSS VL: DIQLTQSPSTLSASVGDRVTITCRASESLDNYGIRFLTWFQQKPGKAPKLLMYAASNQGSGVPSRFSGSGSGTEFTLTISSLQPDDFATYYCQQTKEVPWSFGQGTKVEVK
### Response 104

### Prompt Dear colleague, please send me the reported Mean % WT Binding for Refmab #2 (antibody, V domains shown, The alanine scan used IgG or Fab) VH: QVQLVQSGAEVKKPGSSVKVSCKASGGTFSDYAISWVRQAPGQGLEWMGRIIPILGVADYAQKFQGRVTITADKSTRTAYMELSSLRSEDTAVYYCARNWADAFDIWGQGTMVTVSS VL: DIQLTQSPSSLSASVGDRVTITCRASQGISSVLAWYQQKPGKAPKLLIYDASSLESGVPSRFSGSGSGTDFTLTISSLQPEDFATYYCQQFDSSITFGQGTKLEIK when you can.
### Response 116
